target desc: Rec. human COMT (Homo sapiens, UniProt P21964)
Sequence (P21964 whole entry): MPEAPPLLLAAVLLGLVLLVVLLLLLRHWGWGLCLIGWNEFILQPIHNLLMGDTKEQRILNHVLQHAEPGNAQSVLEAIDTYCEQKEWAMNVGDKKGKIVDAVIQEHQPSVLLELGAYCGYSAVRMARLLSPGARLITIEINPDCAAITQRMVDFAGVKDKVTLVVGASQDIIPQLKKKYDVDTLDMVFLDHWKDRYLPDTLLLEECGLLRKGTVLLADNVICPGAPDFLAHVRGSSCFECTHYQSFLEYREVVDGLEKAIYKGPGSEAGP
protocol summary: COMT-Fluorescence Assay
Format: biochemical
condition description: COMT-fluorescence assay, rec. human COMT 25 nM, 4-Nitrocatechol-Alexa488 200 nM, SAM 500 nM; read-out: IC50
Quick list: IC50 per entry.
Answer format: numeric, nM implied, no suffix.

{"molecule": "N#Cc1c(-c2ccc(F)cc2)cc(O)c2nc[nH]c(=O)c12", "unit spec": "nM", "IC50": 60}
{"molecule": "N#Cc1ccccc1-c1cc(O)c2nc[nH]c(=O)c2c1", "unit spec": "nM", "IC50": 20}
{"molecule": "CS(=O)(=O)Cc1ccccc1-c1cc(O)c2nc[nH]c(=O)c2c1Cl", "unit spec": "nM", "IC50": 610}
{"molecule": "O=c1[nH]cnc2c(O)cc(C3=Cc4ccccc4CC3)cc12", "unit spec": "nM", "IC50": 10}

Request: Field request: IC50 | item: `CC(C)N(Cc1ccccc1-c1cc(O)c2nc[nH]c(=O)c2c1)C(C)C`
Result: 1400

Request: Report IC50 for `CC(C)N(C(=O)c1ccccc1-c1cc(O)c2nc[nH]c(=O)c2c1)C(C)C` please.
Result: 1030

Request: Which IC50 is listed for `Cn1ncc2cc(-c3cc(O)c4nc[nH]c(=O)c4c3)ccc21` ?
Result: 30

Request: // returns reported IC50 for input `Cn1cc(-c2cc(O)c3nc[nH]c(=O)c3c2)c(C(F)(F)F)n1`
Result: 40

Request: Entry under review: `O=c1[nH]cnc2c(O)c(Cl)c(-c3ccc(F)cc3)cc12` . Reported IC50?
Result: 730

---

target desc: Rec. human COMT (Homo sapiens)
protocol summary: COMT-Fluorescence Assay
Assay type: biochemical
condition description: COMT-fluorescence assay, rec. human COMT 25 nM, 4-Nitrocatechol-Alexa488 200 nM, SAM 500 nM; read-out: IC50
Listing of recorded IC50 by entry.
Field format: number, assumed nM, no unit text.

Request: May I ask what IC50 has been recorded for `Cc1cc(C(=O)N2CCN(C)CC2)sc1-c1cc(O)c2nc[nH]c(=O)c2c1` ?
Result: 10

---

target desc: Rec. human COMT (Homo sapiens, UniProt P21964)
protocol summary: COMT-Fluorescence Assay
Assay type: biochemical
condition description: COMT-fluorescence assay, rec. human COMT 25 nM, 4-Nitrocatechol-Alexa488 200 nM, SAM 500 nM; read-out: IC50
observed property: IC50 (nM)
The reply should contain only the number, in nM.

Recorded IC50, per entry:
{"compound": "O=c1[nH]cnc2c(O)cc(-c3ccccc3COCCN3CCCC3)cc12 [Example 239]", "target desc": "Rec. human COMT (Homo sapiens, UniProt P21964)", "test result": 50}
{"compound": "CN1CCN(S(=O)(=O)c2cccc(-c3cc(O)c4nc[nH]c(=O)c4c3)c2)CC1", "target desc": "Rec. human COMT (Homo sapiens, UniProt P21964)", "test result": 20}
{"compound": "O=c1[nH]cnc2c(O)cc(-c3ccccc3)cc12 [Example 128, 8-Hydroxy-6-phenylquinazolin-4(3H)-one]", "target desc": "Rec. human COMT (Homo sapiens, UniProt P21964)", "test result": 20}
{"compound": "O=c1[nH]cnc2c(O)cc(-c3cccc(N4CCOCC4)n3)cc12", "target desc": "Rec. human COMT (Homo sapiens, UniProt P21964)", "test result": 10}

Request: Entry under review: `Cc1ccc(C(=O)c2cc(O)c3nc[nH]c(=O)c3c2)cc1` . Reported IC50?
Result: 100

Request: What does the record list as IC50 for `Cc1cc(-c2cc(O)c3nc[nH]c(=O)c3c2)c(C)s1` ?
Result: 30

Request: For `CN1CCN(CCOCc2ccccc2-c2cc(O)c3nc[nH]c(=O)c3c2)CC1` , what is its reported IC50?
Result: 30

Request: Return reported IC50; argument: O=C(c1ccccc1)c1cc(O)c2nc[nH]c(=O)c2c1 [Example 68, 6-Benzoyl-8-hydroxy-3H-quinazolin-4-one]
Result: 60

Request: Which IC50 value is on record for `CCOc1cc(F)ccc1-c1cc(O)c2nc[nH]c(=O)c2c1` ?
Result: 70

Request: # query: IC50 of entry O=c1[nH]cnc2c(O)cc(C3CCOCC3)cc12 [Example 69, 2,2,2-trifluoroacetate]
Result: 1040

---

# IC50 per entry
target desc: Rec. human COMT (Homo sapiens)
protocol summary: COMT-Fluorescence Assay
Format: biochemical
condition description: COMT-fluorescence assay, rec. human COMT 25 nM, 4-Nitrocatechol-Alexa488 200 nM, SAM 500 nM; read-out: IC50
Answer format: numeric, nM implied, no suffix.

For orientation, consider the following solved cases.
{"molecule": "O=c1[nH]cnc2c(O)c(Br)c(-c3ccc(F)cc3)c(Br)c12 [Example 34]", "test result": 170}
{"molecule": "Cn1nccc1-c1cc(O)c2nc[nH]c(=O)c2c1 [Example 181]", "test result": 20}
{"molecule": "O=c1[nH]cnc2c(O)cc(-c3ccc(F)cc3)c(-c3ccc(F)cc3)c12 [Example 102]", "test result": 1}
{"molecule": "O=c1[nH]cnc2c(O)cc(Br)c(Cl)c12 [Example 117]", "test result": 40}
{"molecule": "CC(C)c1cc(O)c2nc[nH]c(=O)c2c1 [Example 13]", "test result": 1000}

Request: Tell me reported IC50 for Cc1cc(-c2c(-c3ccc(F)cc3)cc(O)c3nc[nH]c(=O)c23)ccn1 [Example 58] , tested with Rec. human COMT (Homo sapiens).
Result: 10

Request: Find the measured IC50: item COCc1cc(COC(=O)N2CCN(C(C)C)CC2)ccc1-c1cc(O)c2nc[nH]c(=O)c2c1 [Example 109, bis(2,2,2-trifluoroacetate)] , target or system Rec. human COMT (Homo sapiens).
Result: 20

Request: Provide value of IC50 for this record tested with Rec. human COMT (Homo sapiens): O=c1[nH]cnc2c(O)cc(-c3ccc4c(c3)OCCO4)cc12 [Example 176]
Result: 20

Request: Give the reported IC50 for Cc1c(-c2cc(O)c3nc[nH]c(=O)c3c2)c(C(F)(F)F)nn1C [Example 95] (system: Rec. human COMT (Homo sapiens)).
Result: 970

---

target desc: UniProt P21964
protocol summary: COMT-Fluorescence Assay
Format: biochemical
condition description: COMT-fluorescence assay, rec. human COMT 25 nM, 4-Nitrocatechol-Alexa488 200 nM, SAM 500 nM; read-out: IC50
Counter-ions that a name gives are not always drawn.
Collected pIC50 values appear next to each entry.
Scale for pIC50: -log10 of concentration given in mol/L; no unit attached.

{"molecule": "O=c1[nH]cnc2c(O)cc(-c3ccc4ccccc4c3)cc12 [Example 169]", "test result": 7.40}
{"molecule": "Cc1ccc(C(=O)c2cc(O)c3nc[nH]c(=O)c3c2)s1 [Example 94]", "test result": 7.05}
{"molecule": "Cc1ccccc1-c1cc(O)c2nc[nH]c(=O)c2c1 [Example 210, 8-Hydroxy-6-o-tolylquinazolin-4(3H)-one]", "test result": 7.52}
{"molecule": "Cc1cc(C(=O)N2CCCCC2)sc1-c1cc(O)c2nc[nH]c(=O)c2c1 [Example 97]", "test result": 8.00}
{"molecule": "Cn1cc(-c2cc(O)c3nc[nH]c(=O)c3c2)cn1 [Example 179]", "test result": 7.05}

Request: Item CN1CCN(C(=O)c2cc(-c3cc(O)c4nc[nH]c(=O)c4c3)n(C)n2)CC1 [Example 230, formate] has what recorded pIC50?
Result: 7.70

Request: Value lookup for pIC50; key = O=c1[nH]cnc2c(O)cc(-c3ccc(F)cc3)c(-c3ccncc3)c12 [Example 56]
Result: 8.00

Request: Data request, read-out pIC50, for Cc1ncccc1-c1cc(O)c2nc[nH]c(=O)c2c1 [Example 138]
Result: 7.70

Request: Look up pIC50: CN(C)CCc1ccccc1-c1cc(O)c2nc[nH]c(=O)c2c1 [Example 234]
Result: 6.01

Request: Look up pIC50 for this molecule: O=c1[nH]cnc2c(O)cc(C3CCCC3)cc12 [Example 18]
Result: 6.05

---

target desc: Rec. human COMT (Homo sapiens, UniProt P21964)
protocol summary: COMT-Fluorescence Assay
Format: biochemical
condition description: COMT-fluorescence assay, rec. human COMT 25 nM, 4-Nitrocatechol-Alexa488 200 nM, SAM 500 nM; read-out: IC50
Collected pIC50 values appear next to each entry.
Convention used: pIC50 is expressed as -log10 of the molar concentration.

Example entries begin here.
{"compound": "Cc1ccc(-c2cc(O)c3nc[nH]c(=O)c3c2)cn1", "test result": 7.22}
{"compound": "Cc1noc(C)c1-c1cc(O)c2nc[nH]c(=O)c2c1", "test result": 6.49}
{"compound": "Cn1cncc1-c1cc(O)c2nc[nH]c(=O)c2c1", "test result": 6.82}
{"compound": "Cc1ccc(C(O)c2cc(O)c3nc[nH]c(=O)c3c2)cc1 (centres unmarked)", "test result": 5.32}

Next item in the queue.
Request: Suppose we examine the compound `O=c1[nH]cnc2c(O)cc(Oc3ccc(F)cc3)cc12` ; what pIC50 value has been reported?
Result: 6.08

Each recorded value in this set is attributed to patent US9656971B2.
